Every entry's value here was drawn from PubChem BioAssay (NCI).

# Tested on: DLD-1 colon
# method.notes: NCI tumour cell line growth inhibition, 48 h
Overview of recorded TGI for various compounds

Recorded results for 3 compounds are shown here.
INSERT INTO assay_data (compound, result) VALUES
  ('COc1ccc2c(c1)C1(C=N2)CCN(C(C)=O)CC1', '> 100 µM'),
  ('CC1(C)CCc2ccc(OCCC(=O)O)cc2O1', '> 100 µM'),
  ('COc1ccc(NC(=O)c2cc(OC)cc(OC)c2)cc1', '> 100 µM');

Which TGI is listed for CCOC(=O)C(Sc1ccccc1)c1c(OC)cc(=O)oc1/C=[N+](/[O-])c1ccc(N(C)C)cc1 (stereo not drawn) ?
> 100 µM
